Target: T1, p204 HINa (Mus musculus, UniProt P0DOV2 216-417)
T1 sequence: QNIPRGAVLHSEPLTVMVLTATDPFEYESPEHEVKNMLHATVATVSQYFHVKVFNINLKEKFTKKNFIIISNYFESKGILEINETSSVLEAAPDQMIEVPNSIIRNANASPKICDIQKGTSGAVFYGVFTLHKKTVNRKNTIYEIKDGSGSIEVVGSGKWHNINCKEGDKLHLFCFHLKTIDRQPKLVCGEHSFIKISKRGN
Test: fluorescence polarization
pKd: −log10 of the molar value.
REPORTED ENDPOINT: pKd

1. 30 mer dsDNA (dsDNA) DNA 1: CCATCAGAAAGAGGTTTAATATTTTTGTGA DNA 2: TCACAAAAATATTAAACCTCTTTCTGATGG :: 3.71

Source of measurements: paper PMC7969034
